Tested on: Wolbachia pipientis
ASSAY PROTOCOL: Anti-Wolbachia Cell-Based Screen
Format: functional
Set-up: scale not given: in the data most compounds retested in dose-response had high values
STUDY CONDITIONS: 5 µM
In all, about 48,000 compounds went through this assay and about 13,000 (27%) showed an effect of 50% or more. This is one part of the list.
Listed below: Percent Effect values for each entry.

COMPOUND	UNIT DESCRIPTOR	Percent Effect
COCCCn1ccc(NC(=O)NCCn2ccnc2)n1	%	-3.976
Cc1cc(C)nc(CN(C)C(=O)c2ccccc2C2CCNC2)c1 (stereo unspecified)	%	-11.76
Cc1noc(CS(=O)(=O)C/C=C/c2ccccc2)n1	%	-7.047
COc1ccccc1CC1CCN(C(=O)CCN2CCOC2=O)CC1	%	-13.03
COc1ccccc1OC1CCN(C(=O)C2CCCN(C)C2)CC1 (stereo unspecified)	%	-2.238
Cc1cc(N(C)C)nc(N2CCn3c(nnc3C3CC3)C2)n1	%	-9.903
COc1cccc(CN2CC(O)CN(C(=O)C3CCC3)CC2=O)c1OC (stereo unspecified)	%	107.9
COc1ccc(OC)c(C2CCN(C(=O)[C@H]3CC[C@@H](O)CC3)C2)c1 (stereo partly specified)	%	4.796
CC(=O)c1ccc(N2CCCC(CO)(Cc3ccccc3F)C2)nc1 (stereo unspecified)	%	-130
CCn1cc(C2CCN(Cc3ccnc(N(C)C)c3)CC2)cn1	%	-12.62
CNC(=O)[C@@H](c1ccccc1OC)N1CCC[C@H]1C(=O)N1CC[C@@H](O)C1.Cl	%	4.858

---

Test system: Wolbachia pipientis
ASSAY PROTOCOL: Anti-Wolbachia Cell-Based Screen
Type: functional
Design: scale not given: in the data most compounds retested in dose-response had high values
STUDY CONDITIONS: 5 µM
About 13,000 (27%) of roughly 48,000 compounds showed an effect of 50% or more. Some of the results follow.
QUANTITY MEASURED: Percent Effect

COMPOUND	QUANTITY MEASURED	VALUE REPORTED
Cc1cc(C)cc(Nc2nc(C)cc(=O)n2CC(=O)NC(C)C)c1	Percent Effect	102.2%
COC(=O)c1ccc(Cn2cccc(C(F)(F)F)c2=O)c(OC)c1	Percent Effect	9.312%
COCC1CCN(CCOc2ccc(C#N)cc2OC)CC1	Percent Effect	-11.6%
COc1cc(C#N)ccc1OC12CCCN(CC1)C2 (centres undefined)	Percent Effect	107.4%
NC(=O)c1ccc(N2CCCCC2)c(NC(=O)c2cc(Br)ccc2F)c1	Percent Effect	10.52%
Cc1nc2cc(=O)[nH]n2c(C)c1CC(=O)NC(C)C	Percent Effect	6.511%
NC(=O)C1CCN(C(=O)c2ccccc2OCc2ccncc2)CC1	Percent Effect	-0.6716%
NC(=O)CCn1cc(CNCCCc2ccccc2O)c2ccccc21	Percent Effect	15.24%
CC(C)NC(=O)CC(C)NCc1cc(Cl)ccc1F (centres undefined)	Percent Effect	1.096%
O=C(c1cc(Br)ccc1-n1cnnn1)N1CCCC1	Percent Effect	113.6%
NC(=O)C1CCN(C(=O)c2cc(Br)ccc2-n2cnnn2)CC1	Percent Effect	120.4%
COc1cc(C#N)ccc1OCCN1CCC(n2ccnc2)CC1	Percent Effect	7.917%
CCC(C)NC(=O)Cc1c(C)nc2c(c1C)c(=O)[nH]n2C (centres undefined)	Percent Effect	-5.261%
CCN(CC(=O)NC(C)C)S(=O)(=O)N1CCCCC1C (centres undefined)	Percent Effect	-3.982%
NC(=O)C1CCN(C(=O)c2ccc(Cn3cc(Br)cn3)cc2)CC1	Percent Effect	-10.39%
Cc1ncc(CC(=O)N2CCC3(CCC(=O)N(C4CC4)C3)CC2)c(=O)[nH]1	Percent Effect	3.916%
COCCN1C[C@@H](C)[C@@]2(COCCN(C(=O)Cc3ccccc3)C2)C1.O=C(O)C(F)(F)F	Percent Effect	-3.108%
CC(C)N(Cc1ccccc1)Cc1nnsc1Cl	Percent Effect	2.332%
Cc1cc(=O)n(CC(=O)NC(C)C)c(Nc2ccc(F)c(C)c2)n1	Percent Effect	119.3%
CCN(C)S(=O)(=O)N1CCC(C(O)c2ccc(Cl)cc2)CC1 (centres undefined)	Percent Effect	1.239%
Cc1occc1C(=O)Nc1cccc(C(=O)OCC2CCCN2)c1.Cl (centres undefined)	Percent Effect	-3.308%
O=C(c1cc(Br)ccc1Cl)N1CCN(Cc2ccco2)CC1	Percent Effect	8.904%
COc1cc(C(C)=O)ccc1SCC(=O)Nc1ccc(C)cn1	Percent Effect	-18.24%
COc1cc(C(C)=O)ccc1OCCNCc1ccco1.Cl	Percent Effect	-30.68%
